target: S. pombe Lumazine Synthase (Schizosaccharomyces pombe); assay: Lumazine synthase kinetic inhibition assay; assay type: biochemical; details: recombinant S. pombe LS
Sequence (Q9UUB1 whole entry): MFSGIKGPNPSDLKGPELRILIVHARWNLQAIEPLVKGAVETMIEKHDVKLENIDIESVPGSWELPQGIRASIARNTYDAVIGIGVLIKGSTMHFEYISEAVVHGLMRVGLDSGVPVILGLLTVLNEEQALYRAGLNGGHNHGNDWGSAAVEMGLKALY
PARAMETER: Mode of inhibition

Reported Mode of inhibition for COc1cc(/C=C/c2[nH]c(=O)[nH]c(=O)c2[N+](=O)[O-])cc(OC)c1OC [Compound 24] : what is it?
Uncompetitive

Try O=C1OC(Cc2[nH]c(=O)[nH]c(=O)c2[N+](=O)[O-])c2ccccc21 (centres unmarked) [Compound 49] next.
Uncompetitive

Try O=c1[nH]c(/C=C/c2ccc3ccccc3c2)c([N+](=O)[O-])c(=O)[nH]1 [Compound 43] next.
Mixed

Try O=c1[nH]c(/C=C/c2ccc[nH]2)c([N+](=O)[O-])c(=O)[nH]1 [Compound 40] next.
Mixed
